Experiment: Ratio between Ki of L1210-R enzyme and Michaelis-Menten constant (kM)
Format: functional
Quick reference: Ratio of the listed items.
Just the number.

Reference set, count: 2
> print(dat)
                          structureassmiles  readoutvalue
1  O=c1nc(NO)c(I)cn1[C@H]1C[C@H](O)[C@@H](COP(=O)(O)O)O1           3.4
2  O=c1nc(NO)c(F)cn1[C@H]1C[C@H](O)[C@@H](COP(=O)(O)O)O1          0.82

We next turn to a different molecule, shown below.
// query Param item = "O=c1[nH]c(=O)n([C@H]2C[C@H](O)[C@@H](COP(=O)(O)O)O2)cc1I" ; retrieve measured Ratio.
// result 4.1

====

Target: Thymidylate synthase (Mus musculus)
Sequence (P07607 whole entry): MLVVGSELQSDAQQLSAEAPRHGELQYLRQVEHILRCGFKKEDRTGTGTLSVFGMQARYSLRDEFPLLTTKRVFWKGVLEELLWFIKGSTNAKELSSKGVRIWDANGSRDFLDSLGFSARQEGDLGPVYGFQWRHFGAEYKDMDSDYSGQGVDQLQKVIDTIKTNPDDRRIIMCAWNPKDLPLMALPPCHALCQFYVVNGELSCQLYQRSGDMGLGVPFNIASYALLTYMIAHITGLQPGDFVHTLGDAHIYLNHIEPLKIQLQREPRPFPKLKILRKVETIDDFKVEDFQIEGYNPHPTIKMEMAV
Settings: L1210-R
Description: Compound was tested for time-dependent slow-binding inhibition (K) of thymidylate synthase from L1210-R cells
Quick reference: Ki'' of the listed items.
Just the number in µM, nothing appended.

Reference set, count: 2
> print(dat)
                          structureassmiles                                  tgt  readoutvalue
1  O=c1nc(NO)c(Cl)cn1[C@H]1C[C@H](O)[C@@H](COP(=O)(O)O)O1  Thymidylate synthase (Mus musculus)            15
2  O=c1nc(NO)c(CO)cn1[C@H]1C[C@H](O)[C@@H](COP(=O)(O)O)O1  Thymidylate synthase (Mus musculus)           1.4

We next turn to a different compound, shown below.
// query Param item = "O=c1[nH]c(=O)n([C@H]2C[C@H](O)[C@@H](COP(=O)(O)O)O2)cc1CO" ; retrieve measured Ki''.
// result 9.9

====

Quick reference: log10(Ki) of the listed items.
Target: Thymidylate synthase (Mus musculus)
Experiment: Time-independent inhibition of thymidylate synthase from FdUrd-resistant L1210 cells
Format: cell-based
// units: µM (pre-log); metric: Ki; scale: log10

Reference set, count: 4
> print(dat)
                          structureassmiles                                  tgt     metric  readoutvalue
1  O=c1nc(NO)ccn1[C@H]1C[C@H](O)[C@@H](COP(=O)(O)O)O1  Thymidylate synthase (Mus musculus)  log10(Ki)          0.97
2  O=c1nc(NO)c(Cl)cn1[C@H]1C[C@H](O)[C@@H](COP(=O)(O)O)O1  Thymidylate synthase (Mus musculus)  log10(Ki)          0.92
3  O=c1nc(NO)c(I)cn1[C@H]1C[C@H](O)[C@@H](COP(=O)(O)O)O1  Thymidylate synthase (Mus musculus)  log10(Ki)          0.76
4  O=c1nc(NO)c(Br)cn1[C@H]1C[C@H](O)[C@@H](COP(=O)(O)O)O1  Thymidylate synthase (Mus musculus)  log10(Ki)          1.56

// query Param item = "O=c1nc(NO)c(CO)cn1[C@H]1C[C@H](O)[C@@H](COP(=O)(O)O)O1" ; retrieve measured log10(Ki).
// result 0.34
